These measurements were taken from patent US9611303B2.

- assay_protocol: Subunit association by FPLC on Sephacryl S-100HR
- Format: physicochemical
- assay_setup: Sephacryl S-100HR, 50 mM potassium phosphate, 500 mM NaCl

{"columns": ["molecule", "Structure (identified by FPLC)"],
 "data": [
  ["TM2 W69K: TM2 in which the 69th tryptophan was replaced with lysine (protein) MSDVQSSLTGTWYNELNSKMELTANKDGTLTGKYLSKVGDVYVPYPLSGRYNLQPPAGQGVALGWAVSKENSKIHSATTWSGQFFSESSPVILTQWLLSSSTARGDVWESTLVGNDSFTKTAPTEQQIAHAQLHCRAPRLK", "Tetramer"],
  ["TM2 N14A: TM2 in which the 14th asparagine was replaced with alanine (protein) MSDVQSSLTGTWYAELNSKMELTANKDGTLTGKYLSKVGDVYVPYPLSGRYNLQPPAGQGVALGWAVSWENSKIHSATTWSGQFFSESSPVILTQWLLSSSTARGDVWESTLVGNDSFTKTAPTEQQIAHAQLHCRAPRLK", "Tetramer"],
  ["WT-TM2: wild-type tamavidin 2, protein comprising the amino acid sequence SEQ ID NO: 2, from Pleurotus cornucopiae (protein, listed as Pleurotus cornucopiae) MSDVQSSLTGTWYNELNSKMELTANKDGTLTGKYLSKVGDVYVPYPLSGRYNLQPPAGQGVALGWAVSWENSKIHSATTWSGQFFSESSPVILTQWLLSSSTARGDVWESTLVGNDSFTKTAPTEQQIAHAQLHCRAPRLK", "Tetramer"],
  ["TM2 L97T-V113R: TM2 with 97th leucine replaced with threonine and 113th valine with arginine (protein) MSDVQSSLTGTWYNELNSKMELTANKDGTLTGKYLSKVGDVYVPYPLSGRYNLQPPAGQGVALGWAVSWENSKIHSATTWSGQFFSESSPVILTQWTLSSSTARGDVWESTLRGNDSFTKTAPTEQQIAHAQLHCRAPRLK", "Tetramer"]
]}
